# measurement target: T1, glycoprotein B (gB) of HSV-1 strain F on infected Vero cells (Herpes simplex virus type 1, strain F, UniProt P06436 30-903)
# T1 construct: whole, on cells; also called HSV-1 F; Wild-type strain F
# procedure text: flow cytometry, equilibrium binding to gB on HSV-1 F infected Vero cells, KD from nonlinear regression fit
outcome measure: pKd
Scale: negative log10 of molar concentration, which is what pKd denotes.

Dear colleague, I am looking for the recorded pKd of the following binder: humanized mAb h2c-V1 (antibody, V domains shown, also called hu2c-V1; mAb hu2c-V1) VH: QVTLKESGPALVKPTQTLTLTCTFSGFSLSTSGMSVGWIRQPPGKALEWLAHIWWNNDKYYKPALKSRLTISKDTSKNQVVLTMTNMDPVDTATYYCARIYYGYRPYAMDYWGQGTLVTVSS VL: DIVMTQTPLSLPVTPGEPASISCRSSQSIVHSNGNTYLEWYLQKPGQSPQLLIYKVSNRFSGVPDRFSGSGSGTDFTLKISRVEAEDVGVYYCFQGSHVPWSFGQGTKVEIKR 7.89

Which pKd is listed for humanized mAb h2c-V4 (antibody, V domains shown, also called hu2c-V4) VH: QVTLKESGPALVKPTQTLTLTCTFSGFSLSTSGMSVGWIRQPPGKALEWLAHIWWNNDKYYKPALKSRLTISKDTSKKQVFLTMTNMDPVDTATYYCARIYYGYRPYAMDYWGQGTLVTVSS VL: DVVMTQTPLSLPVTPGEPASISCRSSQSIVHSNGNTYLEWYLQKPGQSPQLLIYKVSNRFSGVPDRFSGSGSGTDFTLKISRVEAEDVGVYYCFQGSHVPWSFGQGTKVEIKR ? 7.86

Any idea what its pKd is? The binder is humanized mAb h2c-V2 (antibody, V domains shown, also called hu2c-V2) VH: QVTLKESGPALVKPTQTLTLTCTFSGFSLSTSGMSVGWIRQPPGKALEWLAHIWWNNDKYYKPALKSRLTISKDTSKKQVVLTMTNMDPVDTATYYCARIYYGYRPYAMDYWGQGTLVTVSS VL: DIVMTQTPLSLPVTPGEPASISCRSSQSIVHSNGNTYLEWYLQKPGQSPQLLIYKVSNRFSGVPDRFSGSGSGTDFTLKISRVEAEDVGVYYCFQGSHVPWSFGQGTKVEIKR 7.67

If you can, please state the reported pKd value of humanized mAb h2c-V3 (antibody, V domains shown, also called hu2c-V3) VH: QVTLKESGPALVKPTQTLTLTCTFSGFSLSTSGMSVGWIRQPPGKALEWLAHIWWNNDKYYKPALKSRLTISKDTSKKQVFLTMTNMDPVDTATYYCARIYYGYRPYAMDYWGQGTLVTVSS VL: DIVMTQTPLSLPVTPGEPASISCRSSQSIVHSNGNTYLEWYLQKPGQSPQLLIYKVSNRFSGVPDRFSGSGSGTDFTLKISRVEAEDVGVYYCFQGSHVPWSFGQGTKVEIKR . 7.94

Source listed as patent US20130058952A1.
